# kon listing for each entry below
- Target Under Test: T1, recombinant IL-3Rα ectodomain (human, UniProt P26951 19-305)
- T1 construct: extracellular domain; also called recombinant IL-3Ra; biotinylated-IL-3Rα ectodomain
- T1 sequence (looked up): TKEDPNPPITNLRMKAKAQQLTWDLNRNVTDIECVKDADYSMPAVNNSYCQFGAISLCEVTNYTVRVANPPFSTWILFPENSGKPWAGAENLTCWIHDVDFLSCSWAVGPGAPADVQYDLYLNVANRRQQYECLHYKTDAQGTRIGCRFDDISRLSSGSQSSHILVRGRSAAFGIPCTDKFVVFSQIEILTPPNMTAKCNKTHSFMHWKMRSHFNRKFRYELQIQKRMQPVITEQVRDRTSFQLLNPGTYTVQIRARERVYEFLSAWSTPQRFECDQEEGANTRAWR
- Measurement Notes: SPR ProteOn, immobilised IL-3Rα ectodomain
Respond numerically; units are M⁻¹ s⁻¹ and should not be typed.

Binder: 55B04 (VHH) VHH: EVQLVESGGGLVQPGGSLRLSCAASGINFRFNSMGWWRRRAPGKEREWVAAITSGDITNYRDSVRGRFTISRDNVKNTVYLQMNTLKLEDTAVYYCNTFPPIADYWGLGTQVTVSS
kon (M⁻¹ s⁻¹): 504000
--
Binder: 55A01 (VHH, also called CD123#2; A0110055A01) VHH: EVQLVESGGGSVQAGGSLRLSCTTSGRALNMYVMGWFRQAPGNEREFVAATSSSGGSTSYPDSVKGRFTISRDNAKNTVYLQMNSLKPEDTAAYRCAASPYVSTPTMNILEEYRYWGLGTQVTVSS
kon (M⁻¹ s⁻¹): 84000

// moving on: another record for kon
The reported value for 57A07 (VHH, also called CD123#1; A0110057A07) VHH: EVQLVESGGGLVQAGGSLRLSCAASGSIFSGNVMGWYRRQAPGKEREWVAAIASGGSIYYRDSVKGRFTISRDNAKNTVYLQMNSLKPEDTAVYYCNSHPPTLPYWGLGTQVTVSS in terms of kon is 1e+06
